Target: T1, 4H391-AA
T1 chain: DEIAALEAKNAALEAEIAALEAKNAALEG
Experiment: two-hybrid library CCmax;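 further: natural log of median RNA to DNA barcode read ratio; higher means stronger binding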
Conditions: mean of both orientations
Measured interaction score values are reported for all entries that follow.

Binder	interaction score
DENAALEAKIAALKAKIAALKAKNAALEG [4H1391-AA]	-1.36
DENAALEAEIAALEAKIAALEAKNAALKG [4H1064-AA]	-1.37
DKNAALKAEIAALEAEIAALEAKNAALEG [4H3591-AA]	-2.02
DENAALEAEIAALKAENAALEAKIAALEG [4H1109-AA]	-1.46

Q: Look at this binder and give its reported interaction score. DKIAALKAKNAALKAENAALEAKIAALEG [4H3029-AA]
A: -1.42

Q: Value lookup for interaction score; key = DKNAALEAEIAALEAKNAALEAEIAALEG [4H3121-AA]
A: -1.89

Q: Request the reported interaction score associated with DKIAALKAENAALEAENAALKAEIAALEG [4H2713-AA]
A: -1.91

Q: I am curious: what interaction score value has been reported for DKNAALEAEIAALEAENAALKAKIAALKG [4H3102-AA] ?
A: -0.9

Q: // query interaction score value for entry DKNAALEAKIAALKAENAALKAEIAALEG [4H3417-AA]
A: -1.68

Q: GET /values?readout=interaction score&item= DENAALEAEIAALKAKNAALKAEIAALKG [4H1146-AA]
A: -1.21
